test: modulators of CIT2-GFP expression in yeast, confirmation, S. cerevisiae, GFP fusion, cherry picks, mother/daughter gates (AID 2274); details: S. cerevisiae CIT2-GFP strain, flow cytometry, 3 h; measured here: daughter cell gate; at 10 µM; stronger effect = higher value
For each entry below, report its GFP response, % of DMSO value.
Numbers only, in %.

1) CCOc1ccc(S(=O)(=O)n2ccnc2C)cc1 :: 103
2) COc1ccc(-c2cc(C(F)(F)F)nc(N3CCOCC3)n2)cc1OC :: 114
3) Cc1ccc(C(=O)NNC(=S)NC(=O)COc2ccccc2)cc1 :: 139
4) O=C(c1ccc([N+](=O)[O-])o1)N1CCN(c2nc3ccc(F)cc3s2)CC1 :: 103
5) Cc1ccccc1C(=O)NNC(=S)NC(=O)c1ccc(Cl)cc1Cl :: 109
6) CCc1nnc(NC(=O)c2nc(S(=O)(=O)Cc3cccc(C)c3)ncc2Cl)s1 :: 100
7) O=C(O)c1ccc(Sc2ccccn2)c([N+](=O)[O-])c1 :: 101
8) Cc1nc(C)c(-c2csc(NCCc3ccccc3)n2)s1 :: 110
9) O=C(OCC(=O)N1CCN(C(=O)c2ccco2)CC1)c1cc(-c2ccccc2)nc2ccccc12 :: 114
10) COc1ccc(/C=N/c2c(-c3ccco3)nc3ccccn23)cc1OC :: 100

Provide GFP response, % of DMSO for all items below, preserving their order.
1. COc1ccc(C(=O)NC(=S)Nc2ccc(CN3CCOCC3)cc2)cc1
2. COC(=O)Cn1c(C)c(/C=C/c2cc[n+](C)cc2)c2ccccc21
3. C=CCn1cc(/C=C/c2cc[n+](C)cc2)c2ccccc21
4. CC(C)c1nnc(NC(=O)c2nc(S(=O)(=O)Cc3ccc(F)cc3)ncc2Cl)s1

[99.2, 121, 119, 100]

Record GFP response, % of DMSO for all entries; do not skip any.
1. O=C(Nc1ccccc1C(=O)O)c1ccccc1
2. O=C(Nc1ccc(NC(=O)c2cc3ccccc3o2)cc1)c1ccco1
3. COc1ccc(COC(=O)c2n[nH]c3ccccc23)cc1F
4. Cc1nc2ccc(Br)cn2c1C(=O)N/N=C\c1ccccc1Cl
5. CCOc1ccc2nc(SCC(=O)NCC3CCCO3)c(C#N)cc2c1 (stereo not drawn)

102
99.2
108
99.1
91.5

Hi! Can you tell me GFP response, % of DMSO for each of these compounds?
1. COCCCN1C(=O)C2C(C(=O)Nc3cc(C)cc(C)c3)C3C=CC2(O3)C1C(=O)NC1CCCCC1 (stereo not drawn)
2. COc1ccc2c(c1)c(C(C)=O)c(C)n2-c1ccccc1OC
3. Cc1ccc(NC(=O)c2ccccc2O)cc1
4. COc1ccc(-c2cc(=O)n(-c3nc4ccccc4[nH]3)[nH]2)cc1

1. 105
2. 101
3. 106
4. 97.4

This collection of values is drawn from PubChem BioAssay.
